target_entity: human oxytocin receptor (Homo sapiens, UniProt P30559)
Construct: host or cells: CHO cells, stably transfected (pcDNA3.1 vector); membranes
Sequence (P30559 whole entry): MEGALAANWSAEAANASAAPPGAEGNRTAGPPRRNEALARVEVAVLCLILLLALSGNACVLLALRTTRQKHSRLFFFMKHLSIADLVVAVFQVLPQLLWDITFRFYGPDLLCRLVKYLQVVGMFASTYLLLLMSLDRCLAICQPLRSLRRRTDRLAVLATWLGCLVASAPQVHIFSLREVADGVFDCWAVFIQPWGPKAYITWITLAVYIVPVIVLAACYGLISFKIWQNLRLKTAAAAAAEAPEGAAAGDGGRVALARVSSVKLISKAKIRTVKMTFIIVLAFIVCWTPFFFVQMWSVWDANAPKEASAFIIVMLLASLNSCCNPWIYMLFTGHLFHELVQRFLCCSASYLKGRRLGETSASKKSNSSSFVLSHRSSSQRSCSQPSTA
experiment_description: Oxytocin binding in CHO cell membranes expressing human oxytocin receptors ([3H]oxytocin)
condition_context: 100 nM, values without parentheses, read-out: OT % inhibition @ 100 nM
measured_metric: inhibition at 0.1 µM (%)

# compound, measured_metric, result_value
measured = [
    ("COc1cc(C2=CCCc3ccccc32)c(Cl)cc1C(=O)N1Cc2cccn2Cc2ccccc21", "inhibition at 0.1 µM", 93),
]

I: CC1=C(c2ccc(C(=O)N3Cc4cccn4Cc4ccccc43)c(Cl)c2)CCCC1O (stereo not shown)
II: CC1=C(c2ccc(C(=O)N3Cc4cccn4Cc4ccccc43)c(Cl)c2)CCCC1=O
[in] Problem: Given the entries I and II , determine which has the lower reported inhibition at 0.1 µM. When you have decided, please share the label of that item.
[out] I
(I: 27%, II: 98%)
